These data points were gathered from patent US20140294878A1.

biological target: IgE of patient serum 7; assay: ELISA inhibition, serum 7 pre-incubated with 1.25 µg/ml inhibitor; competitor: wt Mal d 1 adsorbed on wells
Please go through the items and note down their % inhibition of Mal d 1-IgE binding.
Numbers only, in %.

Examples from the recorded data:
### Prompt Quick one: % inhibition of Mal d 1-IgE binding for mutant Bet v 1-Mal d 1 hybrid molecule (SEQ ID NO: 4) (protein) HHHHHHGVFNYETETTSVIPAARLFKAFILDGDNLFPKVAPQAISSVENIEGNGGPGTIAKISFPEGFPFKYVKDRVDEVDHTNFKYNYSVIEGGPIGDTLEKISNEIKIVATPDGGSILAINNKYHTAGDHEVKAEQIKASKEMGETLLRAVESYLLAHSDAYNEFGVYTFENEFTSEIPPSRLFKAFVLAADNLIPKIAPQAIKQAEILEGDGGPGTIKKITFGEGSQYGYVKHKIDSVDEAAYSYAYTLIEGDALTDTIEKVSYETKLVASGSGSIIKSISHYHTKGDVEIKEEHVKAGKEKAHGLFKLIESYLKGHPDAYN ?
### Response 60.4

### Prompt Quick one: % inhibition of Mal d 1-IgE binding for wild-type Bet v 1-Mal d 1 hybrid molecule (SEQ ID NO: 3) (protein) HHHHHHGVFNYETETTSVIPAARLFKAFILDGDNLFPKVAPQAISSVENIEGNGGPGTIKKISFPEGFPFKYVKDRVDEVDHTNFKYNYSVIEGGPIGDTLEKISNEIKIVATPDGGSILKINNKYHTKGDHEVKAEQIKASKEMGETLLRAVESYLLAHSDAYNEFGVYTFENEFTSEIPPSRLFKAFVLDADNLIPKIAPQAIKQAEILEGDGGPGTIKKITFGEGSQYGYVKHKIDSVDEANYSYAYTLIEGDALTDTIEKVSYETKLVASGSGSIIKSISHYHTKGDVEIKEEHVKAGKEKAHGLFKLIESYLKGHPDAYN ?
### Response 60.6

### Prompt Quick one: % inhibition of Mal d 1-IgE binding for mixture of the single wt allergens (wt Bet v 1 and wt Mal d 1) (protein) chain 1: HHHHHHGVFNYETETTSVIPAARLFKAFILDGDNLFPKVAPQAISSVENIEGNGGPGTIKKISFPEGFPFKYVKDRVDEVDHTNFKYNYSVIEGGPIGDTLEKISNEIKIVATPDGGSILKINNKYHTKGDHEVKAEQIKASKEMGETLLRAVESYLLAHSDAYN chain 2: HHHHHHGVYTFENEFTSEIPPSRLFKAFVLDADNLIPKIAPQAIKQAEILEGDGGPGTIKKITFGEGSQYGYVKHKIDSVDEANYSYAYTLIEGDALTDTIEKVSYETKLVASGSGSIIKSISHYHTKGDVEIKEEHVKAGKEKAHGLFKLIESYLKGHPDAYN ?
### Response 70.3

Others:
### Prompt Quick one: % inhibition of Mal d 1-IgE binding for mixture of the two mutagenised allergens (mut Bet v 1-SEQ ID NO:6 and mut Mal d 1-SEQ ID NO:2) (protein) chain 1: HHHHHHGVFNYETETTSVIPAARLFKAFILDGDNLFPKVAPQAISSVENIEGNGGPGTIAKISFPEGFPFKYVKDRVDEVDHTNFKYNYSVIEGGPIGDTLEKISNEIKIVATPDGGSILAINNKYHTAGDHEVKAEQIKASKEMGETLLRAVESYLLAHSDAYN chain 2: HHHHHHGVYTFENEFTSEIPPSRLFKAFVLAADNLIPKIAPQAIKQAEILEGDGGPGTIKKITFGEGSQYGYVKHKIDSVDEAAYSYAYTLIEGDALTDTIEKVSYETKLVASGSGSIIKSISHYHTKGDVEIKEEHVKAGKEKAHGLFKLIESYLKGHPDAYN ?
### Response 65.6
